Hey, just so you know, these numbers are from patent US10201586B2.

# MEASUREMENT TARGET: Tissue Factor Pathway Inhibitor (TFPI) (Homo sapiens)
# Sequence (P10646 29-304 limits assumed): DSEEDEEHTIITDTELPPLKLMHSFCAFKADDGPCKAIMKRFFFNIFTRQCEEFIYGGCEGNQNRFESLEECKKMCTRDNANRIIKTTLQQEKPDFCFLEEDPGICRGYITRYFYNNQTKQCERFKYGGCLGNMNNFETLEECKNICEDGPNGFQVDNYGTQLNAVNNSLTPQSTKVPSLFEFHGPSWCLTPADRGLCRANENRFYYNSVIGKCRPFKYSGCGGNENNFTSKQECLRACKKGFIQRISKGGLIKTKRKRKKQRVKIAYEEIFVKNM
# ASSAY PROTOCOL: IC50 ELISA | IC50 [nM]
READOUT TYPE: IC50 (nM)
Use nM as the unit, but write only the number.

Task: Tell us which IC50 value is on record for Ac-FQSK-dtc-NVHVDGYFERL-Aib-AKL-NH2 [JBT2285 | 4047]
Output: 3.44

###

For each of the substances below, state its % Inhibition @ […].
# MEASUREMENT TARGET: TFPI (Homo sapiens)
# ASSAY PROTOCOL: % Inhibition @ 2.5µM
Use % as the unit, but write only the number.

Task: Tell us which % Inhibition @ […] value is on record for Ac-SGYASFPLAVQAHVSKRSKEMALARLYYKTS-NH2 (SEQ ID NO: 2019) [JBT0671]
Output: 4

Task: Tell us which % Inhibition @ […] value is on record for Ac-ASFPLAVQLHVSKRSKE-NH2 (SEQ ID NO: 2313) [JBT0363]
Output: 0

Task: Tell us which % Inhibition @ […] value is on record for Ac-SGAASFPLAVQLHVSKRSKEMALARLYYKTS-NH2 (SEQ ID NO: 2131) [JBT0662]
Output: 4

Task: Tell us which % Inhibition @ […] value is on record for Ac-SGYASFPLAVALHVSKRSKEMALARLYYKTS-NH2 (SEQ ID NO: 2007) [JBT0670]
Output: 6

###

For each of the substances below, state its EC50.
# MEASUREMENT TARGET: recombinant human full length TFPI (Homo sapiens, UniProt P10646)
# Sequence (P10646 29-304 limits assumed): as the sequence (P10646 29-304 limits assumed) above
# ASSAY PROTOCOL: Progression curve | EC50 (µM)
Use nM as the unit, but write only the number.

Task: Please tell me the measured EC50 for Ac-FQSKp-C(ME-400MA)-VHVDGYFERL-Aib-AKL-NH2 [JBT2402 | 4121] ; system: recombinant human full length TFPI (Homo sapiens, UniProt P10646).
Output: 2.6

Task: Please tell me the measured EC50 for Ac-FQSKpNVHV-C(ME-400MA)-GYFERL-Aib-AKL-NH2 [JBT2403 | 4122] ; system: recombinant human full length TFPI (Homo sapiens, UniProt P10646).
Output: 15.3

###

# MEASUREMENT TARGET: TFPI (Homo sapiens, UniProt P10646)
# ASSAY PROTOCOL: IC50 Mean (nM]
# Sequence (P10646 29-304 limits assumed): as the sequence (P10646 29-304 limits assumed) above
READOUT TYPE: pIC50
// returns pIC50 (minus log10 of molar concentration), number only

Task: Tell us which pIC50 value is on record for Ac-K(FAM)KSGVGRLQVAFQSKKNVFVFGYFERLRAKLTSKK-NH2 [JBT0291 | 15]
Output: 7.34

###

# ASSAY PROTOCOL: plasma stability in mouse plasma
# Assay type: in vitro ADME
READOUT TYPE: half-life (min)
Use min as the unit, but write only the number.

Task: Tell us which half-life value is on record for `CC(=O)N[C@@H](Cc1ccccc1)C(=O)N[C@@H](CCC(N)=O)C(=O)N[C@@H](CO)C(=O)N[C@@H](CCCCN)C(=O)NCC(=O)N[C@@H](CC(N)=O)C(=O)N[C@H](C(=O)N[C@@H](Cc1ccccc1)C(=O)N[C@H](C(=O)N[C@@H](CC(=O)O)C(=O)NCC(=O)N[C@@H](Cc1ccc(O)cc1)C(=O)N[C@@H](Cc1ccccc1)C(=O)N[C@@H](CCC(=O)O)C(=O)N[C@@H](CCCNC(=N)N)C(=O)N[C@@H](CC(C)C)C(=O)NC(C)(C)C(=O)N[C@@H](C)C(=O)N[C@@H](CCCCN)C(=O)N[C@@H](CC(C)C)C(N)=O)C(C)C)C(C)C`
Output: 50
